conditions: in n-propanol, 318.15 K
observable: solubility (mole fraction)
Give the figure by itself; no unit, no explanation.

Q. Reported solubility (mole fraction) for c1ccc(-c2ccc(C(c3ccccc3)n3ccnc3)cc2)cc1 (stereo unspecified) : what is it?
A. 0.0134

###

settings: in n-propanol, 288.15 K
observable: solubility (mole fraction)
Give the figure by itself; no unit, no explanation.

Q. Reported solubility (mole fraction) for c1ccc(-c2ccc(C(c3ccccc3)n3ccnc3)cc2)cc1 (stereo unspecified) : what is it?
A. 0.00266

###

conditions: in water, 278.15 K
observable: solubility (mole fraction)
Give the figure by itself; no unit, no explanation.

Q. Reported solubility (mole fraction) for c1ccc(-c2ccc(C(c3ccccc3)n3ccnc3)cc2)cc1 (stereo unspecified) : what is it?
A. 6.6e-06

###

conditions: in n-propanol, 308.15 K
observable: solubility (mole fraction)
Give the figure by itself; no unit, no explanation.

Q. Reported solubility (mole fraction) for c1ccc(-c2ccc(C(c3ccccc3)n3ccnc3)cc2)cc1 (stereo unspecified) : what is it?
A. 0.00799

###

settings: in methanol, 318.15 K
observable: solubility (mole fraction)
Give the figure by itself; no unit, no explanation.

Q. Reported solubility (mole fraction) for c1ccc(-c2ccc(C(c3ccccc3)n3ccnc3)cc2)cc1 (stereo unspecified) : what is it?
A. 0.0166

###

conditions: in methanol, 303.15 K
observable: solubility (mole fraction)

Q. Reported solubility (mole fraction) for c1ccc(-c2ccc(C(c3ccccc3)n3ccnc3)cc2)cc1 (stereo unspecified) : what is it?
A. 0.00844

###

conditions: in isopropanol, 283.15 K
observable: solubility (mole fraction)
Give the figure by itself; no unit, no explanation.

Q. Reported solubility (mole fraction) for c1ccc(-c2ccc(C(c3ccccc3)n3ccnc3)cc2)cc1 (stereo unspecified) : what is it?
A. 0.00165

###

settings: in isopropanol, 278.15 K
observable: solubility (mole fraction)
Give the figure by itself; no unit, no explanation.

Q. Reported solubility (mole fraction) for c1ccc(-c2ccc(C(c3ccccc3)n3ccnc3)cc2)cc1 (stereo unspecified) : what is it?
A. 0.00118

###

conditions: in water, 293.15 K
observable: solubility (mole fraction)
Give the figure by itself; no unit, no explanation.

Q. Reported solubility (mole fraction) for c1ccc(-c2ccc(C(c3ccccc3)n3ccnc3)cc2)cc1 (stereo unspecified) : what is it?
A. 1.7e-05

###

details: in propylene glycol, 308.15 K
observable: solubility (mole fraction)
Give the figure by itself; no unit, no explanation.

Q. Reported solubility (mole fraction) for c1ccc(-c2ccc(C(c3ccccc3)n3ccnc3)cc2)cc1 (stereo unspecified) : what is it?
A. 0.00916

###

conditions: in water, 298.15 K
observable: solubility (mole fraction)
Give the figure by itself; no unit, no explanation.

Q. Reported solubility (mole fraction) for c1ccc(-c2ccc(C(c3ccccc3)n3ccnc3)cc2)cc1 (stereo unspecified) : what is it?
A. 2.05e-05

###

details: in methanol, 288.15 K
observable: solubility (mole fraction)
Give the figure by itself; no unit, no explanation.

Q. Reported solubility (mole fraction) for c1ccc(-c2ccc(C(c3ccccc3)n3ccnc3)cc2)cc1 (stereo unspecified) : what is it?
A. 0.00395
